Target: wild-type RNAP (Escherichia coli, UniProt P0A8T7+P0A8V2)
Sequence (P00579 whole entry, the tested form may be a part): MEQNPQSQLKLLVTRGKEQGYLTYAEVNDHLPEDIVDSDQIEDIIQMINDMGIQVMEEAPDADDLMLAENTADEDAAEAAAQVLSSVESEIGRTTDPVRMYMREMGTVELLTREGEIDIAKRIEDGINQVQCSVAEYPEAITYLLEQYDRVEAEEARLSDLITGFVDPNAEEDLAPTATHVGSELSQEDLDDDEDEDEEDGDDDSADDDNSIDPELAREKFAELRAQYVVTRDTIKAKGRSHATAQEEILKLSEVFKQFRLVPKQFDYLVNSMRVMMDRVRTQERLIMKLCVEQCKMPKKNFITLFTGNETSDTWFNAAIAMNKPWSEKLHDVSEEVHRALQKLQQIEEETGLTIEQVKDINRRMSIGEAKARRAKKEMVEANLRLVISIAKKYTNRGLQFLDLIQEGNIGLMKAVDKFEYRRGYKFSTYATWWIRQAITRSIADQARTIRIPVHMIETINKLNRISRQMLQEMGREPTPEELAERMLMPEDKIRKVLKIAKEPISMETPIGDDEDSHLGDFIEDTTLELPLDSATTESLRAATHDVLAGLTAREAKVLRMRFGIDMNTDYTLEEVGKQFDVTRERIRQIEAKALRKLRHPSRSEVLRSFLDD
Sequence (P0A7Z4 whole entry, further chain, the tested form may be a part): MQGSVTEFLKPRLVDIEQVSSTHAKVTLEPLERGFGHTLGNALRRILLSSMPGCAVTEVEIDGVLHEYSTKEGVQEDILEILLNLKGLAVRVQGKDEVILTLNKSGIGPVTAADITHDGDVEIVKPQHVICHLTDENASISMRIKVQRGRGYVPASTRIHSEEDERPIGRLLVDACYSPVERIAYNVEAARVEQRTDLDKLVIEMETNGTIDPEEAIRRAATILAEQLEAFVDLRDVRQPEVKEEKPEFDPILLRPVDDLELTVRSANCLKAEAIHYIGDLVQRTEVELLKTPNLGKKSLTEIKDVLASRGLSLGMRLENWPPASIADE
Sequence (P0A8T7 whole entry, the tested form may be a part): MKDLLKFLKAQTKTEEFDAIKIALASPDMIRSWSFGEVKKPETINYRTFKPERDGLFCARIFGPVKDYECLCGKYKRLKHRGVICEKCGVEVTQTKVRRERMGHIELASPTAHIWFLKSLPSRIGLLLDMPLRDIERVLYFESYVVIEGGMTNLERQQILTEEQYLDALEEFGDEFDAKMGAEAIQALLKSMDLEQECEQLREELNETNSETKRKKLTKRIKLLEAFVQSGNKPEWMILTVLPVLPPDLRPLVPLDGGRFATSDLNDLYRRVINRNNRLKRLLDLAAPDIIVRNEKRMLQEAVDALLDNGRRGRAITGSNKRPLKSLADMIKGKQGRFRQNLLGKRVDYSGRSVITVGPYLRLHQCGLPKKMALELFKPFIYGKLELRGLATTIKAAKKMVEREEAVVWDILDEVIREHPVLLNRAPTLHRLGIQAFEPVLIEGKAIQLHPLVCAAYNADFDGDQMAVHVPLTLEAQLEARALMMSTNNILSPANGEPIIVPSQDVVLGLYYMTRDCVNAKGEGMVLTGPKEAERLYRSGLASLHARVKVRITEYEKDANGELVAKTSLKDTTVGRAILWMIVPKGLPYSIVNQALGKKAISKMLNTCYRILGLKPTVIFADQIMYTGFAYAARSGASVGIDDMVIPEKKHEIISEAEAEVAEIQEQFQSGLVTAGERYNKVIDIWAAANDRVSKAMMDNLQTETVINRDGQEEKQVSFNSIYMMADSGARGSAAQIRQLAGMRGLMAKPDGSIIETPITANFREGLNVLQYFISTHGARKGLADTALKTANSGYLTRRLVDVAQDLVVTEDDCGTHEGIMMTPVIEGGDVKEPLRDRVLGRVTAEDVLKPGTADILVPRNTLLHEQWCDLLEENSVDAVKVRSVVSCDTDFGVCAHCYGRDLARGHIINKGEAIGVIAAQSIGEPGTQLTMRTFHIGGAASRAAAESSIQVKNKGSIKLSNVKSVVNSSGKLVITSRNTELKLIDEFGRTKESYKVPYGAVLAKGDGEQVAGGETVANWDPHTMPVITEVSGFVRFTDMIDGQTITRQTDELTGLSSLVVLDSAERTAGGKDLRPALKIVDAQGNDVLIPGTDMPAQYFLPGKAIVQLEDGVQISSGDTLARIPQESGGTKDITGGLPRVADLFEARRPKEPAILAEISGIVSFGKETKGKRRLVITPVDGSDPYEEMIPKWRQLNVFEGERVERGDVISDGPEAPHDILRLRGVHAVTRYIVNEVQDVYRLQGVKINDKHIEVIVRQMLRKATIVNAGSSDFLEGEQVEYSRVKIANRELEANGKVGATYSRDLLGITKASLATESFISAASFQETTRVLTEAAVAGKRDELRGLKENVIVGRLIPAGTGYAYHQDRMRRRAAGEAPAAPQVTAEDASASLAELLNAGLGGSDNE
Sequence (P0A8V2 whole entry, the tested form may be a part): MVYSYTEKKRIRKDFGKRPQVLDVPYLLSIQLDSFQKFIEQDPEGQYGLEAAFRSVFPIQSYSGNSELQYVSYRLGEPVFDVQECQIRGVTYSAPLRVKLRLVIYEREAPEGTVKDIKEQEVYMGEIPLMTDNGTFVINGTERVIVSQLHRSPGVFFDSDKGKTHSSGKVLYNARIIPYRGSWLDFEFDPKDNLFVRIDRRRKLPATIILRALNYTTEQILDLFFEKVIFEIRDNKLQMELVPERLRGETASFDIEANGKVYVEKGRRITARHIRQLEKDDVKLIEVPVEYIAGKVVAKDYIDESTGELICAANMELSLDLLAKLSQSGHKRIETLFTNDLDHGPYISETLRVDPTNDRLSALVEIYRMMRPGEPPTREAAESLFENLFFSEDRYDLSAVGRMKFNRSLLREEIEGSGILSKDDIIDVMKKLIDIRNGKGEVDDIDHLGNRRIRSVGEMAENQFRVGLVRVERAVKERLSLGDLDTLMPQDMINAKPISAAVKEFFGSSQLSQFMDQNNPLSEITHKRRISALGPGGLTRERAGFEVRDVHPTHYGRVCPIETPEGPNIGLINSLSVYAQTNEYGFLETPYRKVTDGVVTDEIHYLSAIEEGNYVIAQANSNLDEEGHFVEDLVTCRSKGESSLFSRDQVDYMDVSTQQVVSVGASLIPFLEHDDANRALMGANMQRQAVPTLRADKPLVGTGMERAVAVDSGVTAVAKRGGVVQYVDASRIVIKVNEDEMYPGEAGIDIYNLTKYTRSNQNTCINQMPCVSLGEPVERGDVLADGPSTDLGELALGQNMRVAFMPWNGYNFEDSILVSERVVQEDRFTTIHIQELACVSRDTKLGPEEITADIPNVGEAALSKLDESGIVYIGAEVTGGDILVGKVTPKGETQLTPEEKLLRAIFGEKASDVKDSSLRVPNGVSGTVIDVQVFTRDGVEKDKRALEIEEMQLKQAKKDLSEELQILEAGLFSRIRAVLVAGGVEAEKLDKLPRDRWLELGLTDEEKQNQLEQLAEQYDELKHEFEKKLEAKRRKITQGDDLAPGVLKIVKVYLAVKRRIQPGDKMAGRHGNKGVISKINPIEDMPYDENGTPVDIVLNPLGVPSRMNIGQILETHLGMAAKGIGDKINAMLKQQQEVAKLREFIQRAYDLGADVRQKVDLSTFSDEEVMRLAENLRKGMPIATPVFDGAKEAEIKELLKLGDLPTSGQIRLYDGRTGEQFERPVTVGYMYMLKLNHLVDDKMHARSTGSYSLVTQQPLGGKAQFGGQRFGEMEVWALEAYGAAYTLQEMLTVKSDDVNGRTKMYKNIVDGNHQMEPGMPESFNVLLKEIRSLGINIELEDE
Settings: read-out: IC50, inhibition of formation of abortive products; run-off transcription, promoter DNA fragment
readoutLabel: IC50 (µM)

compoundSmiles: CCC/C(C)=C/C=C(\C)C(=O)c1c(O)cc([C@H](C)CC/C=C/NC(=O)OC)oc1=O
assayTarget: wild-type RNAP (Escherichia coli, UniProt P0A8T7+P0A8V2)
readoutLabel: IC50
unitString: µM
observedMeasurement: 1.7
